- Test system: FcγIIb
- PROTOCOL: FcγR reverse ELISA: inhibition of PAP immune complex binding (Table 2)
- CONDITION_DESCRIPTION: PAP/peptide mixture on FcγR coated plates; positive control 1.394
Ends that are not written are not given here.
PROPERTY_NAME: OD405 FcγIIb

[[record]]
substance = "APPCAFHLGELVWCT (cysteine pairing not given here) [SEQ ID NO:18]"
property_name = "OD405 FcγIIb"
reading = 0.380

[[record]]
substance = "Asp-Cys-Ala-Phe-His-Leu-Gly-Glu-Leu-Val-Trp-Cys-Thr (DCAFHLGELVWCT) [SEQ ID NO:3]"
property_name = "OD405 FcγIIb"
reading = 0.510

[[record]]
substance = "APPCARHLGELVWCT (cysteine pairing not given here) [SEQ ID NO:16]"
property_name = "OD405 FcγIIb"
reading = 0.768

[[record]]
substance = "Asp-Cys-Ala-Trp-His-Leu-Gly-Glu-Leu-Val-Trp-Cys-Thr [SEQ ID NO:2]"
property_name = "OD405 FcγIIb"
reading = 0.532

[[record]]
substance = "APPCAWHLGELVWCT (cysteine pairing not given here) [SEQ ID NO:14]"
property_name = "OD405 FcγIIb"
reading = 0.562

[[record]]
substance = "Ala-Pro-Pro-Asp-Cys-Ala-Trp-His-Leu-Gly-Glu-Leu-Val-Trp-Cys-Thr (APPDCAWHLGELVWCT) [SEQ ID NO:20]"
property_name = "OD405 FcγIIb"
reading = 0.496


====

- Test system: FcγIIa (R131 allele)
- PROTOCOL: FcγR reverse ELISA: inhibition of PAP immune complex binding (Table 2)
- CONDITION_DESCRIPTION: PAP/peptide mixture on FcγR coated plates; positive control 1.599
Ends that are not written are not given here.
Items are presented alongside their recorded OD405 FcγIIa (R131 allele).
PROPERTY_NAME: OD405 FcγIIa (R131 allele)

[[record]]
substance = "APPCAWHLGELVWCT (cysteine pairing not given here) [SEQ ID NO:14]"
reading = 0.658

[[record]]
substance = "Asp-Cys-Ala-Phe-His-Leu-Gly-Glu-Leu-Val-Trp-Cys-Thr (DCAFHLGELVWCT) [SEQ ID NO:3]"
reading = 0.660

[[record]]
substance = "Ala-Pro-Pro-Asp-Cys-Ala-Trp-His-Leu-Gly-Glu-Leu-Val-Trp-Cys-Thr (APPDCAWHLGELVWCT) [SEQ ID NO:20]"
reading = 0.509

[[record]]
substance = "Asp-Cys-Ala-Trp-His-Leu-Gly-Glu-Leu-Val-Trp-Cys-Thr [SEQ ID NO:2]"
reading = 0.561

[[record]]
substance = "APPCAFHLGELVWCT (cysteine pairing not given here) [SEQ ID NO:18]"
reading = 0.605

[[record]]
substance = "APPCARHLGELVWCT (cysteine pairing not given here) [SEQ ID NO:16]"
reading = 0.956


Values compiled from patent US20120021988A1.
